- system_under_test: T1, human GPC3 (human, UniProt P51654 25-563)
- T1 construct: range 25-563; soluble analyte; also called soluble human GPC3; glypican 3
- protocol_notes: SPR
Can you tell me pKd for the items I'm about to list?
Numbers only, as −log10 of the molar value.

Reference set (2 entries):
binder: GCH099-G1dh/none-Hi-Kn010G3/L0000-k0 (antibody, V domains shown, one-arm) VH: QVQLVQSGAEVKKPGASVTVSCKASGYTFTDYEMHWVRQAPGEGLEWMGAIDGWTPDTAYSEKFKGRVTLTADKSTSTAYMELSSLTSEDTAVYYCTRFYSYTYWGQGTLVTVSS VL: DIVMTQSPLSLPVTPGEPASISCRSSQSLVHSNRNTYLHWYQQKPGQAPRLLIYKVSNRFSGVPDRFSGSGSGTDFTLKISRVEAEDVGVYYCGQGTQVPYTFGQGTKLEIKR
pKd: 8.37
//
binder: GCH042-G1dh/none-Hi-Kn010G3/L0000-k0 (antibody, V domains shown, one-arm) VH: QVQLVQSGAEVKKPGASVKVSCKASGYTFTDYEMHWIRQPPGQGLEWIGAIDGKTPDTAYSQKFKGRVTLTADKSTSTAYMELSSLTEEDTAVYYCTRFYSYTYWGQGTLVTVSS VL: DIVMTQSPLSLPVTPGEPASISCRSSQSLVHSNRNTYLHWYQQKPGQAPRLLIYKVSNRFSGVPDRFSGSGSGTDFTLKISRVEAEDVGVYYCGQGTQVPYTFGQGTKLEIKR
pKd: 8.31

Kindly consider the entry below.
Challenge: What value of pKd has been recorded for this entry: H0610-G1dh/none-Hi-Kn010G3/L0219-k0 (antibody, V domains shown, one-arm) VH: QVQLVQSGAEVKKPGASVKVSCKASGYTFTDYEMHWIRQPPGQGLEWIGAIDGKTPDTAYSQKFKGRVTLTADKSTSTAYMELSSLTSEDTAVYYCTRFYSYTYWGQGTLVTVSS VL: DIVMTQSPLSLPVTPGEPASISCRSSQSLVHSNRNTYIHWYQQKPGQAPRLLIYKVSNRFRGVPDRFSGSGSGTDFTLKISRVEAEDVGVYYCGQGTQVPYTFGQGTKLEIK
Response given: 8.64

Where these numbers come from: patent US20250066503A1
